species: Rattus norvegicus; test: Positive allosteric modulation of AMPA receptor in Sprague-Dawley rat hippocampal neuron assessed as glutamate-induced response pre-treated for 20 secs by patch-clamp electrophysiology; format: tissue-based; conditions: Hippocampus
Labelling: CD reported below 0.1 µM becomes class 1; at or above becomes class 0.

Reference set (4 entries):
Hello, I'm reviewing records and need to know if CD of O=C1c2cc3ncn(CCn4cccn4)c(=O)c3cc2OC2CCCN12 (stereo unspecified) is below 0.1 µM. Could you check?
class 0

Hello, I'm reviewing records and need to know if CD of C#C[C@H](Cc1cccc(F)c1)n1nnc2cc3c(cc2c1=O)OC1CCCN1C3=O (stereo partly specified) is below 0.1 µM. Could you check?
class 1

Hello, I'm reviewing records and need to know if CD of C[C@H](Cn1ncnn1)n1nnc2cc3c(cc2c1=O)OCN(C1CC1)C3=O is below 0.1 µM. Could you check?
class 0

Hello, I'm reviewing records and need to know if CD of C#C[C@H](Cc1cc(F)cc(F)c1)n1nnc2cc3c(cc2c1=O)OC1CCCN1C3=O (stereo partly specified) is below 0.1 µM. Could you check?
class 1

Continue with the compound presented below.
Hello, I'm reviewing records and need to know if CD of C#C[C@H](Cc1cc(F)cc(F)c1)n1cnc2cc3c(cc2c1=O)OC1CCCN1C3=O (stereo partly specified) is below 0.1 µM. Could you check?
class 1

###

species: Rattus norvegicus; assay: Positive allosteric modulation of AMPA receptor in Sprague-Dawley rat hippocampal neuron assessed as glutamate-induced response pre-treated for 20 secs by patch-clamp electrophysiology; format: tissue-based; conditions: Hippocampus
Measurement Name: CD (µM)
Numbers only, in µM.

Form: compound = C#C[C@H](Cc1cccc(F)c1)n1nnc2cc3c(cc2c1=O)OCN(C1CC1)C3=O ; CD = 0.2

Form: compound = O=C1c2cc3ncn(CCc4cccc(F)c4)c(=O)c3cc2OC2CCCN12 (stereo not given) ; CD = 0.0037

Form: compound = COC(=O)[C@@H](Cc1ccccc1)N1COc2cc3c(cc2C1=O)OC1CCCN1C3=O (stereo not given in full) ; CD = 48

Form: compound = CC[C@H](Cn1cc(Cl)cn1)n1cnc2cc3c(cc2c1=O)OC1CCCN1C3=O (stereo not given in full) ; CD = 0.0084

Here is another compound to look at.
Form: compound = C[C@H](Cn1ncnn1)n1cnc2cc3c(cc2c1=O)OC1CCCN1C3=O (stereo not given in full) ; CD = 0.03

###

species on record: Rattus norvegicus; experiment: Positive allosteric modulation of AMPA receptor in Sprague-Dawley rat hippocampal neuron assessed as glutamate-induced response pre-treated for 20 secs by patch-clamp electrophysiology; type: tissue-based; details: Hippocampus
Measurement Name: CD

Reference set (3 entries):
Form: molecule = O=C1c2cc3ncn(CCc4ccccc4)c(=O)c3cc2OC2CCCN12 (stereo unspecified) ; CD = 0.13 µM

Form: molecule = C[C@H](Cn1ncnn1)n1nnc2cc3c(cc2c1=O)OC1CCCN1C3=O (stereo partly specified) ; CD = 0.042 µM

Form: molecule = O=C1c2cc3ncn(CCn4cc(Cl)cn4)c(=O)c3cc2OC2CCCN12 (stereo unspecified) ; CD = 0.019 µM

Required: CD, one value per molecule below.
1. O=C1c2cc3ncn(C4CC4)c(=O)c3cc2OC2CCCN12 (stereo unspecified)
2. C[C@H](Cn1cc(Cl)cn1)n1cnc2cc3c(cc2c1=O)OC1CCCN1C3=O (stereo partly specified)
3. COC(CN1COc2cc3c(cc2C1=O)OC1CCCN1C3=O)c1ccccc1 (racemic)

1. 6.7 µM
2. 0.0069 µM
3. 7.4 µM

###

species on record: Rattus norvegicus; assay: Positive allosteric modulation of AMPA receptor in Sprague-Dawley rat hippocampal neuron assessed as glutamate-induced response pre-treated for 20 secs by patch-clamp electrophysiology; assay type: tissue-based; settings: Hippocampus
Labelling: CD reported below 0.4 µM becomes 1 (yes); at or above becomes 0 (no).

Reference set (3 entries):
Hello, I'm reviewing records and need to know if CD of O=C(CN1COc2cc3c(cc2C1=O)OC1CCCN1C3=O)c1ccccc1 (stereo not given) is below 0.4 µM. Could you check?
0 (no)

Hello, I'm reviewing records and need to know if CD of C[C@H](Cn1nccn1)n1cnc2cc3c(cc2c1=O)OC1CCCN1C3=O (stereo not given in full) is below 0.4 µM. Could you check?
0 (no)

Hello, I'm reviewing records and need to know if CD of C#C[C@H](Cc1ccccc1)N1COc2cc3c(cc2C1=O)OC1CCCN1C3=O (stereo not given in full) is below 0.4 µM. Could you check?
1 (yes)

Continue with the molecule presented below.
Hello, I'm reviewing records and need to know if CD of O=C1c2cc3c(cc2OCN1CCc1cccc(F)c1)C(=O)N1CCCC1O3 (stereo not given) is below 0.4 µM. Could you check?
1 (yes)

###

Consider the following molecules; for each one, report its CD.
species on record: Rattus norvegicus; test: Positive allosteric modulation of AMPA receptor in Sprague-Dawley rat hippocampal neuron assessed as glutamate-induced response pre-treated for 20 secs by patch-clamp electrophysiology; assay type: tissue-based; settings: Hippocampus

Form: molecule = C#C[C@H](Cc1cccc(F)c1)N1COc2cc3c(cc2C1=O)OC1CCCN1C3=O (stereo not given in full) ; CD = 0.004 µM

Form: molecule = CC[C@H](Cc1cccc(F)c1)n1nnc2cc3c(cc2c1=O)OC1CCCN1C3=O (stereo not given in full) ; CD = 0.021 µM

Form: molecule = C#CCn1nnc2cc3c(cc2c1=O)OC1CCCN1C3=O (stereo not given) ; CD = 0.14 µM

Form: molecule = COC(=O)[C@H](Cc1ccccc1)N1COc2cc3c(cc2C1=O)OC1CCCN1C3=O (stereo not given in full) ; CD = 0.28 µM

Form: molecule = C[C@H](Cn1cnnn1)n1nnc2cc3c(cc2c1=O)OC1CCCN1C3=O (stereo not given in full) ; CD = 0.015 µM

Required: CD, one value per molecule below.
1. C#C[C@H](Cc1cccc(F)c1)n1cnc2cc3c(cc2c1=O)OC1CCCN1C3=O (stereo not given in full)
2. Cn1nnc2cc3c(cc2c1=O)OC1CCCN1C3=O (stereo not given)
3. O=C1c2cc3c(cc2OCN1CC(O)c1ccccc1)C(=O)N1CCCC1O3 (racemic)

1: 0.006 µM; 2: 0.68 µM; 3: 1 µM

Required: CD, one value per molecule below.
1. C[C@H](Cn1cnnn1)n1nnc2cc3c(cc2c1=O)OCN(C1CC1)C3=O
2. O=C1c2cc3nnn(CCc4cccc(F)c4)c(=O)c3cc2OC2CCCN12 (stereo not given)

1. 0.19 µM
2. 0.0031 µM

Required: CD, one value per molecule below.
1. C#CCn1cnc2cc3c(cc2c1=O)OC1CCCN1C3=O (stereo not given)
2. O=C1c2cc3c(cc2OCN1CCc1ccccc1)C(=O)N1CCCC1O3 (stereo not given)
3. CC(C)(CN1COc2cc3c(cc2C1=O)OC1CCCN1C3=O)c1cccc(F)c1 (stereo not given)
4. O=C1c2cc3c(cc2OCN1CC(F)(F)c1cccc(F)c1)C(=O)N1CCCC1O3 (stereo not given)

1: 0.13 µM; 2: 0.25 µM; 3: 17 µM; 4: 1.5 µM
